These measurements were taken from ChEMBL document CHEMBL1130143.

Biological target: Delta-type opioid receptor (Rattus norvegicus, UniProt P33533)
Sequence (P33533 whole entry): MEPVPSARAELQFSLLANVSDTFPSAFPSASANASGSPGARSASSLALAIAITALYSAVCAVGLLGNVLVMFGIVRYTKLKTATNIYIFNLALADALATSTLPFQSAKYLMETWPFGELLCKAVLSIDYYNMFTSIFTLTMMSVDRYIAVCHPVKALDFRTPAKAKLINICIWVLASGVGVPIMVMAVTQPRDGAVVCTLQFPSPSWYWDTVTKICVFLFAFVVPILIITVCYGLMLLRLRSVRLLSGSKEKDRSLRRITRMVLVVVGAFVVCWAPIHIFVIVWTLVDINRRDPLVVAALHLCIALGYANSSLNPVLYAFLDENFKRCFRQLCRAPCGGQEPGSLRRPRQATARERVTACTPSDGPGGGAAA
Assay: Binding affinity for Opioid receptor delta 1 by the inhibition of binding of [3H]DADAL in rat brain membranes.
Type: cell membranes
pIC50: −log10 of the molar value.
value type: pIC50

[[record]]
sample_smiles = "C=CCN1C[C@H](C)N([C@@H](c2ccc(C(=O)N(CCC)CCC)cc2)c2cccc(OC)c2)C[C@H]1C"
value_type = "pIC50"
assay_result = 6.82

[[record]]
sample_smiles = "C=CCN1C[C@H](C)N([C@H](c2ccc(C(=O)N3CCCC3)cc2)c2cccc(OC)c2)C[C@H]1C"
value_type = "pIC50"
assay_result = 7.74

[[record]]
sample_smiles = "C=CCN1C[C@H](C)N([C@H](c2ccc(C(=O)NC(C)(C)C)cc2)c2cccc(OC)c2)C[C@H]1C"
value_type = "pIC50"
assay_result = 6.55

[[record]]
sample_smiles = "C=CCN1C[C@H](C)N([C@H](c2ccc(C(=O)N(CCCC)CCCC)cc2)c2cccc(OC)c2)C[C@H]1C"
value_type = "pIC50"
assay_result = 7.46


---

Observed IC50 values for Mu-type opioid receptor (Homo sapiens, UniProt P35372) are listed in what follows.
value type: IC50 (µM)

[[record]]
sample_smiles = "C=CCN1C[C@H](C)N([C@H](c2ccc(C(=O)N(C)CC)cc2)c2cccc(OC)c2)C[C@H]1C"
experimental_system = "Mu-type opioid receptor (Homo sapiens, UniProt P35372)"
assay_result = 12.1

[[record]]
sample_smiles = "C=CCN1C[C@H](C)N([C@H](c2ccc(C(=O)N(C)C)cc2)c2cccc(OC)c2)C[C@H]1C"
experimental_system = "Mu-type opioid receptor (Homo sapiens, UniProt P35372)"
assay_result = 9.72

[[record]]
sample_smiles = "C=CCN1C[C@H](C)N([C@H](c2ccc(C(=O)N3CCCC3)cc2)c2cccc(OC)c2)C[C@H]1C"
experimental_system = "Mu-type opioid receptor (Homo sapiens, UniProt P35372)"
assay_result = 6.19

[[record]]
sample_smiles = "C=CCN1C[C@H](C)N([C@H](c2ccc(C(=O)N(C(C)C)C(C)C)cc2)c2cccc(OC)c2)C[C@H]1C"
experimental_system = "Mu-type opioid receptor (Homo sapiens, UniProt P35372)"
assay_result = 6.84


---

Target: Delta-type opioid receptor (Homo sapiens, UniProt P41143)
Sequence (P41143 whole entry): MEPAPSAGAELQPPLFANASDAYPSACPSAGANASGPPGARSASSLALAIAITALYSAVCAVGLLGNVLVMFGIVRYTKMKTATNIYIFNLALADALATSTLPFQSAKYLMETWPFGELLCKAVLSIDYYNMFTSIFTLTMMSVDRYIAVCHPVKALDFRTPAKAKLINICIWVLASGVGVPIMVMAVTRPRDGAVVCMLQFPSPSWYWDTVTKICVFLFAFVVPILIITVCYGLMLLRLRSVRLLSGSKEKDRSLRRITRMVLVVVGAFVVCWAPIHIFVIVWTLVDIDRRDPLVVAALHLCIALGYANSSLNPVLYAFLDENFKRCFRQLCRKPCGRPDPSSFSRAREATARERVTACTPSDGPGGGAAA
Assay: Binding affinity for Opioid receptor delta 1 by the inhibition of binding of [3H]-p-DPDPE human cloned receptors.
pIC50: −log10 of the molar value.
value type: pIC50

[[record]]
sample_smiles = "C=CCN1C[C@H](C)N([C@H](c2ccc(C(=O)N(C)CC)cc2)c2cccc(OC)c2)C[C@H]1C"
value_type = "pIC50"
assay_result = 8.10

[[record]]
sample_smiles = "C=CCN1C[C@H](C)N([C@H](c2ccc(C(=O)N3CCCCCC3)cc2)c2cccc(OC)c2)C[C@H]1C"
value_type = "pIC50"
assay_result = 7.89

[[record]]
sample_smiles = "C=CCN1C[C@H](C)N([C@H](c2ccc(C(=O)N(CC)CCCC)cc2)c2cccc(OC)c2)C[C@H]1C"
value_type = "pIC50"
assay_result = 7.99

[[record]]
sample_smiles = "C=CCN1C[C@H](C)N([C@H](c2ccc(C(=O)N(CCC)CCC)cc2)c2cccc(OC)c2)C[C@H]1C"
value_type = "pIC50"
assay_result = 8.12


---

Biological target: Delta-type opioid receptor (Rattus norvegicus, UniProt P33533)
Assay: Binding affinity for Opioid receptor delta 1 by the inhibition of binding of [3H]DADAL in rat brain membranes.
Format: cell membranes
pIC50: −log10 of the molar value.
The entries below come with measured pIC50 values attached.
value type: pIC50

[[record]]
sample_smiles = "C=CCN1C[C@H](C)N([C@@H](c2ccc(C(N)=O)cc2)c2cccc(OC)c2)C[C@H]1C"
assay_result = 6.41

[[record]]
sample_smiles = "C=CCN1C[C@H](C)N([C@H](c2ccc(C(=O)N(CCC)CCC)cc2)c2cccc(OC)c2)C[C@H]1C"
assay_result = 7.88

[[record]]
sample_smiles = "C=CCN1C[C@H](C)N([C@@H](c2ccc(C(=O)N3CCCC3)cc2)c2cccc(OC)c2)C[C@H]1C"
assay_result = 6.58

[[record]]
sample_smiles = "C=CCN1C[C@H](C)N([C@H](c2ccc(C(=O)N(C(C)C)C(C)C)cc2)c2cccc(OC)c2)C[C@H]1C"
assay_result = 8.15

[[record]]
sample_smiles = "C=CCN1C[C@H](C)N([C@@H](c2ccc(C(=O)N3CCCCCC3)cc2)c2cccc(OC)c2)C[C@H]1C"
assay_result = 6.91

[[record]]
sample_smiles = "C=CCN1C[C@H](C)N([C@@H](c2ccc(C(=O)NCC)cc2)c2cccc(OC)c2)C[C@H]1C"
assay_result = 7.46

